- measurementNotes: Phase 1/2a study, pharmacokinetics
- Format: in vivo, human
- particulars: human, plasma, oral, 100 mg, 100 mg BID, patient 0701-001; read-out: T1/2 (converted)

- compound: "C=CC(=O)N[C@H]1C=C(C)c2c(-c3cnc4ccccc4c3)c3c(N)ncnc3n2C1 [Compound 1]"
  half-life / h: 3.6
